Origin of measurements: the NIST ThermoML archive (doi:10.1016/j.fluid.2005.01.002)

Experiment notes: activity coefficient (dimensionless); of the first substance listed, at infinite dilution; xn = mol fraction of the nth substance listed
Study conditions: 353.15 K; 101.33 kPa; Liquid; Static method; x1 = 0
Readout: activity coefficient

Observe how each entry below is paired with its result.
| Molecule | Readout | Val |
| --- | --- | --- |
| CC(C)=O [acetone] + CCn1cc[n+](C)c1.O=S(=O)([N-]S(=O)(=O)C(F)(F)F)C(F)(F)F | activity coefficient | 0.438 |
| CC(C)O [propan-2-ol] + CCCC[n+]1ccn(C)c1.O=S(=O)([N-]S(=O)(=O)C(F)(F)F)C(F)(F)F | activity coefficient | 1.1 |
| CC(C)O [propan-2-ol] + CCn1cc[n+](C)c1.O=S(=O)([N-]S(=O)(=O)C(F)(F)F)C(F)(F)F | activity coefficient | 1.42 |

[Q] What measured activity coefficient goes with C1CCOC1 [tetrahydrofuran] + COP(=O)([O-])OC.Cn1cc[n+](C)c1 ?
[A] 3.21

* * *

Experiment notes: activity coefficient (dimensionless); of the first substance listed, at infinite dilution; xn = mol fraction of the nth substance listed
Study conditions: 353.15 K; 101.33 kPa; Liquid; Static method; x1 = 0
Readout: activity coefficient

Observe how each entry below is paired with its result.
| Molecule | activity coefficient |
| --- | --- |
| O [water] + COP(=O)([O-])OC.Cn1cc[n+](C)c1 | 0.028 |
| CO [methanol] + COP(=O)([O-])OC.Cn1cc[n+](C)c1 | 0.029 |
| O [water] + CCn1cc[n+](C)c1.O=S(=O)([N-]S(=O)(=O)C(F)(F)F)C(F)(F)F | 2.32 |
| CC(C)=O [acetone] + CCCC[n+]1ccn(C)c1.O=S(=O)([N-]S(=O)(=O)C(F)(F)F)C(F)(F)F | 0.406 |
| C1CCOC1 [tetrahydrofuran] + CCn1cc[n+](C)c1.O=S(=O)([N-]S(=O)(=O)C(F)(F)F)C(F)(F)F | 0.8 |

[Q] What measured activity coefficient goes with CC(C)=O [acetone] + COP(=O)([O-])OC.Cn1cc[n+](C)c1 ?
[A] 0.98

[Q] Also O [water] + CCCC[n+]1ccn(C)c1.O=S(=O)([N-]S(=O)(=O)C(F)(F)F)C(F)(F)F , if possible.
[A] 2.27

[Q] Also CCO [ethanol] + COP(=O)([O-])OC.Cn1cc[n+](C)c1 , if possible.
[A] 0.115
